# key: entry, value: Kb
target: human orexin-2 receptor (OX2R) (Homo sapiens, UniProt O43614)
Construct: expressed in transfected cells; host or cells: CHO cells (G418 selection)
Sequence (O43614 whole entry): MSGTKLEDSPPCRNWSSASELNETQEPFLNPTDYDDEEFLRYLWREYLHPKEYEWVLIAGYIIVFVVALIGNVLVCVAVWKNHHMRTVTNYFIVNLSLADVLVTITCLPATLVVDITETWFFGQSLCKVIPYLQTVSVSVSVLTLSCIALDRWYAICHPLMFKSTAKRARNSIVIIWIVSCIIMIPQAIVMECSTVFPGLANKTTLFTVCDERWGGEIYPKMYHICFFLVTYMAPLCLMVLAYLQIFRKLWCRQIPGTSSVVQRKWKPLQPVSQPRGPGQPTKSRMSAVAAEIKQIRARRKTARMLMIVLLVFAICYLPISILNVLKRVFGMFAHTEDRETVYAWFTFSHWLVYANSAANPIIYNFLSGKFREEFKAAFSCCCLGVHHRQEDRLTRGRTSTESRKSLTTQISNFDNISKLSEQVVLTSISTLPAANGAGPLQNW
assay info: In vitro orexin antagonism assay: intracellular calcium measurement (FLIPR), orexin-A 3 nM as agonist
Assay type: cell-based
protocol conditions: second value of IC50/Kb cell

smiles text: O=C(c1c(-c2ccccc2F)nn2ccccc12)N1CCC[C@H]1Cn1ccc(-c2ccccn2)n1
target: human orexin-2 receptor (OX2R) (Homo sapiens, UniProt O43614)
unit abbreviation: nM
Kb: 4

smiles text: O=C(c1c(-c2ncccn2)nn2ccccc12)N1CCC[C@H]1Cn1ccc(-c2ccccn2)n1
target: human orexin-2 receptor (OX2R) (Homo sapiens, UniProt O43614)
unit abbreviation: nM
Kb: 84

smiles text: O=C(c1c(-c2ccccc2)nn2ccccc12)N1CCC[C@H]1Cn1ccc(-c2ccc(F)cc2)n1
target: human orexin-2 receptor (OX2R) (Homo sapiens, UniProt O43614)
unit abbreviation: nM
Kb: 2

smiles text: O=C(c1c(-c2ccccc2F)nn2ccccc12)N1CCC[C@H]1Cn1ccc(-c2ccc(F)cc2)n1
target: human orexin-2 receptor (OX2R) (Homo sapiens, UniProt O43614)
unit abbreviation: nM
Kb: 0.9

###

target: Orexin type 1 (OX1R) receptor (Homo sapiens, UniProt O43613)
Construct: expressed in transfected cells; host or cells: CHO cells (G418 selection)
assay info: In vitro orexin antagonism assay: intracellular calcium measurement (FLIPR), orexin-A 3 nM as agonist
Format: cell-based
protocol conditions: second value of IC50/Kb cell
Outcome: 1 for Kb of at least 7 nM; 0 for anything lower.

compound: O=C(c1c(-c2ccccc2)nn2c1COCC2)N1CCCC[C@H]1CNc1ccc(C(F)(F)F)cn1 [Example 27]
target: Orexin type 1 (OX1R) receptor (Homo sapiens, UniProt O43613)
cat: 0

compound: O=C(c1nn2c(c1-c1ccccc1)COCC2)N1CCC[C@H]1Cn1ccc(-c2ccccn2)n1 [Example 134]
target: Orexin type 1 (OX1R) receptor (Homo sapiens, UniProt O43613)
cat: 0

compound: O=C(c1nc2ccccn2c1-c1ccccc1)N1CCC[C@H]1Cn1cc(-c2ccccn2)cn1 [Example 118]
target: Orexin type 1 (OX1R) receptor (Homo sapiens, UniProt O43613)
cat: 0

compound: O=C(c1c(-c2ccccc2)nc2cc(C(F)(F)F)ccn12)N1[C@H](Cn2ccc(-c3ccc(F)cn3)n2)C[C@@H]2C[C@@H]21 [Example 110]
target: Orexin type 1 (OX1R) receptor (Homo sapiens, UniProt O43613)
cat: 1

compound: O=C(c1nc2ccccn2c1-c1ccccn1)N1CCC[C@H]1Cc1nc(-c2ccc(F)cn2)no1 [Example 210]
target: Orexin type 1 (OX1R) receptor (Homo sapiens, UniProt O43613)
cat: 1

compound: CCc1cnc(NC[C@@H]2CCCN2C(=O)c2c(-c3ccccc3)nn3ccccc23)nc1 [Example 15]
target: Orexin type 1 (OX1R) receptor (Homo sapiens, UniProt O43613)
cat: 1

###

target: UniProt:O43613
Sequence (O43613 1-425): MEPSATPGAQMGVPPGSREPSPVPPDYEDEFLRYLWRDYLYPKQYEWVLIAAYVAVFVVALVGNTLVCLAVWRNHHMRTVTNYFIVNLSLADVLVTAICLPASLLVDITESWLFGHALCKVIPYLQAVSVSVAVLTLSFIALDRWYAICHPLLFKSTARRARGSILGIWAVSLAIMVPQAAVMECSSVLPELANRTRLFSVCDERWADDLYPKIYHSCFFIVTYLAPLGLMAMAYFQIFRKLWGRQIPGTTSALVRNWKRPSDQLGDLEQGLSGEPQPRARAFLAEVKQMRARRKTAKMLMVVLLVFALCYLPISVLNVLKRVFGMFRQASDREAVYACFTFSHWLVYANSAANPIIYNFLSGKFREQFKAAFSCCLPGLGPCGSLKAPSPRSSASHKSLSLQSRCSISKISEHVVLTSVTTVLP
assay info: In vitro orexin antagonism assay: intracellular calcium measurement (FLIPR), orexin-A 3 nM as agonist
protocol conditions: first value of IC50/Kb cell
pIC50: −log10 of the molar value.
readout kind: pIC50

compound: O=C(c1nc2ccccn2c1-c1ccccn1)N1CCC[C@H]1Cn1cc(-c2ccc(F)cn2)cn1 [Example 208]
target: UniProt:O43613
measured: 7.41
--
compound: O=C(c1c(-c2ccccc2)nc2cc(C(F)(F)F)ccn12)N1[C@H](Cn2ccc(-c3ccc(F)cn3)n2)C[C@@H]2C[C@@H]21 [Example 110]
target: UniProt:O43613
measured: 6.55
--
compound: O=C(c1nn2cccnc2c1-c1ccccn1)N1C(Cn2ccc(-c3ccc(F)cn3)n2)C[C@@H]2C[C@@H]21 (stereo partly drawn) [Example 187]
target: UniProt:O43613
measured: 7.85
--
compound: O=C(c1c(-c2ccccc2)nn2c1COCC2)N1CCCC[C@H]1CNc1ccc(C(F)(F)F)cn1 [Example 27]
target: UniProt:O43613
measured: 8.05
--
compound: O=C(c1nn2c(c1-c1ccccc1)OCCC2)N1CCC[C@H]1COc1ccc(C(F)(F)F)cn1 [Example 142]
target: UniProt:O43613
measured: 8.22
--
compound: O=C(c1c(-c2ccc(F)cc2)nc2ccccn12)N1CCC[C@H]1Cn1ccc(-c2ccc(F)cc2)n1 [Example 61]
target: UniProt:O43613
measured: 7.54
--
compound: O=C(c1nc2ccccn2c1-c1ccccc1)N1CCC[C@H]1Cn1ccc(-c2ccccn2)n1 [Example 119]
target: UniProt:O43613
measured: 8.30
--
compound: O=C(c1nn2c(c1-c1ccccn1)OCCC2)N1CCC[C@H]1COc1ccc(C(F)(F)F)cn1 [Example 201]
target: UniProt:O43613
measured: 8.05
--
compound: O=C(c1c(-c2ccccn2)nn2ccccc12)N1CCC[C@H]1COc1ccc(C(F)(F)F)cn1 [Example 192]
target: UniProt:O43613
measured: 7.96
--
compound: O=C(c1nn2c(c1-c1ccccc1)COCC2)N1[C@@H]2CC[C@@H](C2)[C@H]1COc1ccc(C(F)(F)F)cn1 [Example 152]
target: UniProt:O43613
measured: 5.62
--
compound: O=C(c1c(-c2ccccc2F)nn2ccccc12)N1CCC[C@H]1COc1ccc(C(F)(F)F)cn1 [Example 64]
target: UniProt:O43613
measured: 7.96
--
compound: O=C(c1nn2c(c1-c1ccccn1)COCC2)N1CCC[C@H]1Cn1ccc(-c2ccccn2)n1 [Example 211]
target: UniProt:O43613
measured: 7.72
--
compound: O=C(c1c(-c2ccccc2)nn2ccccc12)N1CCCC[C@H]1CNc1ccc(C(F)(F)F)cn1 [Example 25]
target: UniProt:O43613
measured: 7.77
--
compound: O=C(c1c(-c2ccccc2)nn2c1COCC2)N1CCC[C@H]1Cn1cc(-c2ccccc2)cn1 [Example 86]
target: UniProt:O43613
measured: 5.89
--
compound: O=C(c1c(-c2ccccc2)nc2ccccn12)N1CCCC[C@H]1CNc1ccc(C(F)(F)F)cn1 [Example 26]
target: UniProt:O43613
measured: 7.85
